Provide the recorded EC50 for the entries that follow.
Molecular target: T1, recombinant human IL-17A (human, UniProt Q16552 24-155)
T1 construct: also called IL-17A antigen
T1 sequence (Q16552 24-155 limits assumed): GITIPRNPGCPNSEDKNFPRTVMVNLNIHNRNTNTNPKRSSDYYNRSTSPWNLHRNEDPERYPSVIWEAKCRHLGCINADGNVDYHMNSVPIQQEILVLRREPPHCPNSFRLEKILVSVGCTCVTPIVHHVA
Assay: ELISA, recombinant human IL-17A coated at 1 µg/mL, HRP anti-human IgG, OD450nm
Expressed in nM, but write only the number.

Find the recorded EC50 belonging to anti-human IL-17A humanized monoclonal antibody AS15810 (antibody, human IgG1, kappa, V domains shown) VH: QVQVQESGPGLVKPSETLSLTCTVSGNSITSYYAWNWIRQPPGKGLEWMGYITYSGTTSYNPSLKSRVTISVDTSKNQFSLKLSSVTAADTAVYYCAREEYDDIYAVDYWGQGTLVTVSS VL: DVVMTQSPLSLPVTLGQPASISCRSSQSLVHSNGNTYLHWYQQRPGQSPRLLIYKVYNRFSGVPDRFSGSGSGTDFTLKISRVEAEDVGVYYCSQSTHFPTFGQGTRLEIKR and report it.
0.083

Would you mind doing anti-human IL-17A humanized monoclonal antibody AS15799 (antibody, human IgG1, kappa, V domains shown) VH: QVQVQESGPGLVKPSETLSLTCTVSGNSITSYYAWNWIRQPPGKGLEWMGYITYSGTTSYNPSLKSRVTISRDTSKNQFSLKLSSVTAADTAVYYCAREEYDDIYAVDYWGQGTLVTVSS VL: IIVMTQSPLSLPVTLGQPASISCRSSQSLVHSNGNTYLHWYQQRPGQSPRRLIYKVYNRFSGVPDRFSGSGSGTDFTLKISRVEAEDVGVYYCSQSTHFPTFGQGTRLEIKR as well?
0.091

Would you mind doing anti-human IL-17A humanized monoclonal antibody AS15815 (antibody, human IgG1, kappa, V domains shown) VH: QVQVQESGPGLVKPSETLSLTCTVSGNSITSYYAWNWIRQPPGKGLEWMGYITYSGTTSYNPSLKSRITISRDTSKNQFSLKLSSVTAADTAVYYCAREEYDDIYAVDYWGQGTLVTVSS VL: DVVMTQSPLSLPVTLGQPASISCRSSQSLVHSNGNTYLHWFQQRPGQSPRLLIYKVYNRFSGVPDRFSGSGSGTDFTLKISRVEAEDVGVYYCSQSTHFPTFGQGTRLEIKR as well?
0.077

Would you mind doing anti-human IL-17A humanized monoclonal antibody AS15805 (antibody, human IgG1, kappa, V domains shown) VH: QVQVQESGPGLVKPSETLSLTCTVSGNSITSYYAWNWIRQPPGKGLEWMGYITYSGTTSYNPSLKSRITISRDTSKNQFSLKLSSVTAADTAVYYCAREEYDDIYAVDYWGQGTLVTVSS VL: DIVMTQSPLSLPVTLGQPASISCRSSQSLVHSNGNTYLHWYQQRPGQSPRRLIYKVYNRFSGVPDRFSGSGSGTDFTLKISRVEAEDVGVYYCSQSTHFPTFGQGTRLEIKR as well?
0.082
